Source listed as paper PMC10786891.

Target: T1, EsCas13d, nuclease-dead (Eubacterium siraeum, UniProt B0MS50, R295A;H300A;R849A;H854A)
T1 sequence: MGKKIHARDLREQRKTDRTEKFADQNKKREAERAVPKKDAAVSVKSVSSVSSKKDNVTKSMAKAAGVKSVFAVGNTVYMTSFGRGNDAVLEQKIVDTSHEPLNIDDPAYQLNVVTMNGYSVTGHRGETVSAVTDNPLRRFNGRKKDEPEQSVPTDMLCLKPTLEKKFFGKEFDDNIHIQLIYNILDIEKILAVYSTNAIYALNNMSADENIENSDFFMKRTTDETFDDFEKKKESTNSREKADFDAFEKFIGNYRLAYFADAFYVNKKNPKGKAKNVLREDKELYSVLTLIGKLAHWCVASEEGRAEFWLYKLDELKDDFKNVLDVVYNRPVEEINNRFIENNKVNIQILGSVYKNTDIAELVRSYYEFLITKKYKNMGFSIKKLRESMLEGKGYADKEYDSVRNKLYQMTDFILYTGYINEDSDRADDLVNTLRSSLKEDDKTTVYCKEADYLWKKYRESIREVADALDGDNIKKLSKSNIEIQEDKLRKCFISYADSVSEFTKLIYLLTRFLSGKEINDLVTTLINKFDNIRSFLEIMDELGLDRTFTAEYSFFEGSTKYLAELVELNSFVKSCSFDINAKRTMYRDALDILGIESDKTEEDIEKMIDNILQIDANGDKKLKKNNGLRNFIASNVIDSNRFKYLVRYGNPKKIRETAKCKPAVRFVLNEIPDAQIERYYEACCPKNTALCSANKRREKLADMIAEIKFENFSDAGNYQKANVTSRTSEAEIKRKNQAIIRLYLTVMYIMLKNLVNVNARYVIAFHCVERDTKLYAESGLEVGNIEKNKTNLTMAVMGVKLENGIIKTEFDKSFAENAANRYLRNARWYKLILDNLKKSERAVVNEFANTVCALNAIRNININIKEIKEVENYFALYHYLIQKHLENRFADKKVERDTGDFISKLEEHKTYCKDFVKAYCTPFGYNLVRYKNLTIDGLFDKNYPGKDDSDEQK
Test: crRNA (strand 1, pre-loaded); Mg2+; 40 mM Tris-HCl pH 7.5, 150 mM NaCl, 6 mM MgCl2, 1 mM DTT, 0.1% Tween-20, 0.2 mg/ml BSA; 25 C; 10 min per concentration, then washed
Conditions: tags: His6-TwinStrep-SUMO cleaved; N-terminal SNAP kept (SNAP-Surface 488); label: 3' end held by stalled T7 RNA polymerase
Kd for assorted binders

Sample answers from the record:
target 2 MT 5'PFS GAC 3'PFS AAU (mixed) RNA 1: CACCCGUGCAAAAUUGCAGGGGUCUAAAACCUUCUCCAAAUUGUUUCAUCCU RNA 2: GGGAAUGGAUCCACAUCUACGAAUUCGACAGGAUGAAACAAUUUGGAGAAGAAUAGAUCGGAAGAGCACACGU : 10.7 nM
target 1 insC 3' of 18,insG 3' of 8 (mixed) RNA 1: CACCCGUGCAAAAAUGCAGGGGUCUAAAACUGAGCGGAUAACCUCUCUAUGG RNA 2: GGGAAUGGAUCCACAUCUACGAAUUCGUACCAUACGAGAGGUUAUGCCGCUCACCGAGAUCGGAAGAGCACACGU : 53.4 nM
target 1 G5A,C6G (mixed) RNA 1: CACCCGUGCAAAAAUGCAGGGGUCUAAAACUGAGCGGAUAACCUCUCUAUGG RNA 2: GGGAAUGGAUCCACAUCUACGAAUUCGUACCAUAGAGAGGUUAUCGACUCACCGAGAUCGGAAGAGCACACGU : 8 nM

Now let's try a different one.
Q: What value of Kd has been recorded for this entry: target 1 insG 3' of 19,insA 3' of 17 (mixed) RNA 1: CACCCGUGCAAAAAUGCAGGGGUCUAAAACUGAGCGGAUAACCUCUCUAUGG RNA 2: GGGAAUGGAUCCACAUCUACGAAUUCGUACCAUGAGAAGAGGUUAUCCGCUCACCGAGAUCGGAAGAGCACACGU
A: 73 nM
